# target_entity: T1, BMP-12 (UniProt Q7Z4P5 322-450, limits assumed)
# T1 construct: also called BMP12/GDF7
# T1 sequence (looked up): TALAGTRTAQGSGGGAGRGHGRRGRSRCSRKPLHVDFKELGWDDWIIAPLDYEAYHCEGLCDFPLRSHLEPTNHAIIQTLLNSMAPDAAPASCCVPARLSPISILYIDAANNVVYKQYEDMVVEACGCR
# method_description: peptide resin, filter plate; load 2: 50 mM Acetic Acid, 0.1 M NaCl, pH 4.0
No end group written: not given here.

| binder | 100 mM HAc elution conc |
| --- | --- |
| Ac-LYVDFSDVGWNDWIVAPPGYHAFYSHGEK [BMP2 Full peptide 747] | 0.147 mg/mL |
| Ac-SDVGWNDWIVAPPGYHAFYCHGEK [BMP2 N-trun peptide 750] | 0.194 mg/mL |
| Ac-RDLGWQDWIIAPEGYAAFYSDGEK [BMP5 peptide 748] | 0.151 mg/mL |
| Ac-LYVSDVGWNDWIVK (not fully specified (residue 3); printed as Ac-LYV**SDVGWNDWIVK; also: ** after V3 not explained) [BMP2 C-trunc_2 peptide 746] | 0.208 mg/mL |
| Ac-VAPPGYHAFYSHGEK [BMP2 N-trunc_2 peptide 745] | 0.057 mg/mL |
| Ac-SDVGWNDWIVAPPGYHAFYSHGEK [BMP2 N-trun 1S peptide 751] | 0.219 mg/mL |
| Ac-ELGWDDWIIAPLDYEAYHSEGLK [BMP12 N-trun_1S peptide 749] | 0.175 mg/mL |

Reference source: patent US7754689B2
